The measured values listed here are drawn from patent US6110955A.

test system: SK-N-MC; assay: Clonogenicity in soft agar (growth inhibition); format: cell-based, human; conditions: Homo sapiens
Measurement label: pIC50
Scale: pIC50 equals -log10([C]), with [C] in mol/L.

Item CCCC(=O)OCOC(=O)C(C)c1ccc(CC(C)C)cc1 (stereo not shown) [Compound 1] with SK-N-MC - pIC50? 4.62

###

assay: In vitro stability in human blood; assay type: in vitro ADME; details: whole human blood, radiolabelled, read-out: calculated half time
Measurement label: half-life

Using the record for CCCC(=O)OCOC(=O)C(C)c1ccc(CC(C)C)cc1 (stereo not shown) [Compound 1] , report its half-life. ~20.8 min

###

test system: LA1-5S; experiment: Clonogenicity in soft agar (growth inhibition); format: cell-based, human; settings: Homo sapiens
Measurement label: IC50 (µM)
Give your result in µM as a bare value.

Using the record for CCCC(=O)OCOC(=O)C(C)c1ccc(CC(C)C)cc1 (stereo not shown) , report its IC50. 29

###

tested on: SMS-KAN; test: Clonogenicity in soft agar (growth inhibition); assay type: cell-based, human; details: Homo sapiens
Measurement label: pIC50
Scale: pIC50 equals -log10([C]), with [C] in mol/L.

Using the record for CCCC(=O)OCOC(=O)C(C)c1ccc(CC(C)C)cc1 (stereo not shown) , report its pIC50. 4.11

###

Item-by-item account of pIC50
system: NBAS-5; assay: Clonogenicity in soft agar (growth inhibition); assay type: cell-based, human; conditions: Homo sapiens; NBAS-5
Scale: pIC50 equals -log10([C]), with [C] in mol/L.

CCCC(=O)O [AB, arginine butyrate, reference compound] = 3.08

Using the record for CCCC(=O)OCOC(=O)C(C)c1ccc(CC(C)C)cc1 (centres unmarked) [Compound 1] , report its pIC50. 4.82
